Test target: human recombinant ENPP1 (Homo sapiens, UniProt P22413)
Construct: purchased R&D systems
Test description: in vitro recombinant human ENPP1 enzymatic assay (AMP-Glo, cGAMP substrate)
Format: biochemical
Run conditions: Table 1; ENPP1; test concentration not given
Recorded metric: % inhibition (%)

Study these solved cases before continuing.
Compound	Test target	Recorded metric	Test result
CC(C)n1ccc2c(N3CCC(CNS(N)(=O)=O)CC3)ncnc21 [18e]	human recombinant ENPP1 (Homo sapiens, UniProt P22413)	% inhibition	75
Cc1c[nH]c2ncnc(N3CCC(CNS(N)(=O)=O)CC3)c12 [18m]	human recombinant ENPP1 (Homo sapiens, UniProt P22413)	% inhibition	94
NS(=O)(=O)NC1CCN(c2ncnc3[nH]ccc23)CC1 [18q]	human recombinant ENPP1 (Homo sapiens, UniProt P22413)	% inhibition	71
CC(NS(N)(=O)=O)C1CCN(c2ncnc3[nH]ccc23)CC1 (stereo not drawn) [18o]	human recombinant ENPP1 (Homo sapiens, UniProt P22413)	% inhibition	99
NS(=O)(=O)NCC1CCN(c2ncnc3c2ccn3-c2cccnc2)CC1 [18l]	human recombinant ENPP1 (Homo sapiens, UniProt P22413)	% inhibition	71
NS(=O)(=O)NCCC1CCN(c2ncnc3[nH]ccc23)CC1 [18a]	human recombinant ENPP1 (Homo sapiens, UniProt P22413)	% inhibition	99

[a] Cn1ccc2c(N3CCC(CNS(N)(=O)=O)CC3)ncnc21 [18d]
[b] Cc1ccc(S(=O)(=O)NCC2CCN(c3ncnc4[nH]ccc34)CC2)cc1.Cl [20b]
[c] Cl.O=S(=O)(NCC1CCN(c2ncnc3[nH]ccc23)CC1)C1CC1 [20c]
QUERY: List these items ordered by % inhibition, big to small. Show the ranking through the labels, in the order asked for.
RESULT: a, b, c
(a: 100%, b: 62%, c: 22%)

----------
Test target: human recombinant ENPP1 (Homo sapiens, UniProt P22413)
Construct: purchased R&D systems
Sequence (P22413 1-925): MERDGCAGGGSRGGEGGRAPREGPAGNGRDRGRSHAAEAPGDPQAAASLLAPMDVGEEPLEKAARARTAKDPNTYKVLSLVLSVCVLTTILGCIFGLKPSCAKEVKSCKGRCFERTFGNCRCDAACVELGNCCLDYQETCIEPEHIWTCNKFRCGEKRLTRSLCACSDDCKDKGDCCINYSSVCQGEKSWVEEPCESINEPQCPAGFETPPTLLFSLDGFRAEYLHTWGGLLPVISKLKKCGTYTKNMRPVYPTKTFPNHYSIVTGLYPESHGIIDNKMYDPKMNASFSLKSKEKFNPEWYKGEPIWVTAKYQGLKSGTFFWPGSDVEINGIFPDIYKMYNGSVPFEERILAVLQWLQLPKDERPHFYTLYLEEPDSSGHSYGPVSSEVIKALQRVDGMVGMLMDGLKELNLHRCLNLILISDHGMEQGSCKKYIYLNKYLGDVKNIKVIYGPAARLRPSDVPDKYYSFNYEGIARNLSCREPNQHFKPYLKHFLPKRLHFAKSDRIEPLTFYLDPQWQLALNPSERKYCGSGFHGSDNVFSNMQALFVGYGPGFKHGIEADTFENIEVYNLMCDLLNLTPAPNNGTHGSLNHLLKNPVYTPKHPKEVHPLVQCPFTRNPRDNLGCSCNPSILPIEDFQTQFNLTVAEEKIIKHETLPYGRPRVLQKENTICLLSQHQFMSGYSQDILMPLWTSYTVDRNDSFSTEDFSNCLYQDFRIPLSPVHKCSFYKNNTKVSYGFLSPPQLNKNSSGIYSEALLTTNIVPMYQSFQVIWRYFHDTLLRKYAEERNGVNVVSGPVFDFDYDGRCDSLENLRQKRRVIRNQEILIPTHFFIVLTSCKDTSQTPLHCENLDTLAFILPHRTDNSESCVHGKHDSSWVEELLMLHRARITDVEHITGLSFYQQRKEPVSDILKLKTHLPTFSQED
Test description: in vitro recombinant human ENPP1 enzymatic assay (AMP-Glo, cGAMP substrate)
Assay type: biochemical
Run conditions: Table 2; ENPP1; test concentration not given
Recorded metric: % inhibition (%)

Compound	Test target	Recorded metric	Unit text	Test result
NS(=O)(=O)Nc1ccc(-c2ccnc3[nH]ccc23)cc1 [25b]	human recombinant ENPP1 (Homo sapiens, UniProt P22413)	% inhibition	%	33
NS(=O)(=O)Nc1ccc(-c2ncnc3[nH]ccc23)cc1 [25a]	human recombinant ENPP1 (Homo sapiens, UniProt P22413)	% inhibition	%	0
CC(C)(NS(N)(=O)=O)c1ccc(-c2ncnc3[nH]ccc23)cc1 [25h]	human recombinant ENPP1 (Homo sapiens, UniProt P22413)	% inhibition	%	98

[1] NS(=O)(=O)NCc1ccc(-c2ncnc3[nH]ccc23)cc1 [25d]
[2] NS(=O)(=O)NCc1cccc(-c2ncnc3[nH]ccc23)c1 [25g]
QUERY: Between 1 and 2 , whose recorded % inhibition is greater? Field: selected label. Fill in the label of the entry you choose.
RESULT: 1

FYI, the data here is from paper PMC9467556.
